Let's look at some compounds and their measured selectivity ratio.
Test: Selectivity index, ratio of CC50 for cytotoxicity against human THP-1 cells to IC50 for anti-leishmanial activity against promastigote stage of Leishmania infantum MHOM/MA/67/ITMAP-263
Format: toxicity, cell-based
Settings: read-out: Ratio CC50/IC50
Measured Property: selectivity ratio

[[record]]
smiles_notation = "COc1ccc(/C=N/Nc2ncnc3c(Nc4ccc(OC(F)(F)F)cc4)ncnc23)cc1O"
measured_property = "selectivity ratio"
result_operator = "="
recorded_measurement = 4

[[record]]
smiles_notation = "Oc1ccc(/C=N/Nc2ncnc3c(Nc4ccc(OC(F)(F)F)cc4)ncnc23)cc1O"
measured_property = "selectivity ratio"
result_operator = "="
recorded_measurement = 1

[[record]]
smiles_notation = "COc1ccc(Nc2ncnc3c(N/N=C/c4ccc(OC)c(OC)c4)ncnc23)cc1"
measured_property = "selectivity ratio"
result_operator = ">"
recorded_measurement = 52

[[record]]
smiles_notation = "COc1ccc(Nc2ncnc3c(N/N=C/c4ccc(O)c(O)c4)ncnc23)cc1"
measured_property = "selectivity ratio"
result_operator = ">"
recorded_measurement = 101

[[record]]
smiles_notation = "COc1cccc(Nc2ncnc3c(NN)ncnc23)c1"
measured_property = "selectivity ratio"
result_operator = "="
recorded_measurement = 178

[[record]]
smiles_notation = "COc1cccc(Nc2ncnc3c(N/N=C/c4ccc(O)c(O)c4)ncnc23)c1"
measured_property = "selectivity ratio"
result_operator = "="
recorded_measurement = 30

[[record]]
smiles_notation = "CCCCCCCCCCCCCCCCOP(=O)([O-])OCC[N+](C)(C)C"
measured_property = "selectivity ratio"
result_operator = "="
recorded_measurement = 2.5

[[record]]
smiles_notation = "COc1cccc(Nc2ncnc3c(N/N=C/c4cc(O)c(O)c(O)c4)ncnc23)c1"
measured_property = "selectivity ratio"
result_operator = ">"
recorded_measurement = 221

[[record]]
smiles_notation = "COc1ccc(Nc2ncnc3c(NN)ncnc23)cc1"
measured_property = "selectivity ratio"
result_operator = "="
recorded_measurement = 69

[[record]]
smiles_notation = "COc1cccc(Nc2ncnc3c(N/N=C/c4ccc(OC)c(OC)c4)ncnc23)c1"
measured_property = "selectivity ratio"
result_operator = ">"
recorded_measurement = 35

[[record]]
smiles_notation = "COc1cc(/C=N/Nc2ncnc3c(Nc4ccc(OC(F)(F)F)cc4)ncnc23)ccc1O"
measured_property = "selectivity ratio"
result_operator = "="
recorded_measurement = 1

[[record]]
smiles_notation = "COc1ccc(Nc2ncnc3c(N/N=C/c4cc(O)c(O)c(O)c4)ncnc23)cc1"
measured_property = "selectivity ratio"
result_operator = ">"
recorded_measurement = 502


* * *

Biological target: CYP3A4 (Homo sapiens, UniProt P08684)
Sequence (P08684 whole entry): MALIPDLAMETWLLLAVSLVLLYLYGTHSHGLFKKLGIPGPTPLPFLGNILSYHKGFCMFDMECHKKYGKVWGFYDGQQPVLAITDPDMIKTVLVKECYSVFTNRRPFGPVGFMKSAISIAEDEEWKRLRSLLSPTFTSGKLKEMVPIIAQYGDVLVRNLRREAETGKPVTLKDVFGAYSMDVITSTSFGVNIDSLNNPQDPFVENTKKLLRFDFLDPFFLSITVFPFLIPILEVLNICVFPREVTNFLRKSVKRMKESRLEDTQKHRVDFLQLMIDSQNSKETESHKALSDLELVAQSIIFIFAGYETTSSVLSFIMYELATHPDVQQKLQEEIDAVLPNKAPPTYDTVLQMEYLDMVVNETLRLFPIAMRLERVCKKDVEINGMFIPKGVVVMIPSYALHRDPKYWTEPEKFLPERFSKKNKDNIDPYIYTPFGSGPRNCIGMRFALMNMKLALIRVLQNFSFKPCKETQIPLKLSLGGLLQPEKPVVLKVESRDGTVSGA
Test: Inhibition of human CYP3A4 expressed in insect cell microsomes at 10 uM preincubated for 20 mins followed by NADP+ and substrate addition and measured after 10 mins by fluorescence based analysis
Type: ADME, Microsome
Conditions: recombinant human CYP3A4 expressed in insect cell microsomes, time 30 min
Measured Property: inhibition at 10 min, 10 µM (%)

[[record]]
smiles_notation = "COc1ccc(/C=N/Nc2ncnc3c(Nc4ccc(F)c(Cl)c4)ncnc23)cc1O"
recorded_measurement = 20

[[record]]
smiles_notation = "COc1cc(/C=N/Nc2ncnc3c(Nc4ccc(OC(F)(F)F)cc4)ncnc23)ccc1O"
recorded_measurement = 0

[[record]]
smiles_notation = "COc1cccc(Nc2ncnc3c(N/N=C/c4cc(O)c(O)c(O)c4)ncnc23)c1"
recorded_measurement = 0

[[record]]
smiles_notation = "Oc1cc(/C=N/Nc2ncnc3c(Nc4ccc(Cl)c(C(F)(F)F)c4)ncnc23)cc(O)c1O"
recorded_measurement = 11

[[record]]
smiles_notation = "COc1cccc(Nc2ncnc3c(N/N=C/c4ccc(OC)c(OC)c4)ncnc23)c1"
recorded_measurement = 0

[[record]]
smiles_notation = "COc1ccc(Nc2ncnc3c(N/N=C/c4ccc(OC)c(OC)c4)ncnc23)cc1"
recorded_measurement = 0

[[record]]
smiles_notation = "Oc1ccc(/C=N/Nc2ncnc3c(Nc4ccc(OC(F)(F)F)cc4)ncnc23)cc1O"
recorded_measurement = 0

[[record]]
smiles_notation = "COc1cc(/C=N/Nc2ncnc3c(Nc4ccc(OC(F)(F)F)cc4)ncnc23)cc(OC)c1OC"
recorded_measurement = 11

[[record]]
smiles_notation = "COc1cc(/C=N/Nc2ncnc3c(Nc4ccc(F)c(Cl)c4)ncnc23)cc(OC)c1O"
recorded_measurement = 32

[[record]]
smiles_notation = "Oc1ccc(/C=N/Nc2ncnc3c(Nc4ccc(F)c(Cl)c4)ncnc23)cc1O"
recorded_measurement = 25

[[record]]
smiles_notation = "COc1cc(/C=N/Nc2ncnc3c(Nc4ccc(F)c(Cl)c4)ncnc23)cc(OC)c1OC"
recorded_measurement = 30

[[record]]
smiles_notation = "COc1cccc(Nc2ncnc3c(N/N=C/c4ccc(O)c(O)c4)ncnc23)c1"
recorded_measurement = 2

[[record]]
smiles_notation = "COc1ccc(/C=N/Nc2ncnc3c(Nc4ccc(Cl)c(C(F)(F)F)c4)ncnc23)cc1O"
recorded_measurement = 27

[[record]]
smiles_notation = "Oc1ccc(/C=N/Nc2ncnc3c(Nc4ccc(Cl)c(C(F)(F)F)c4)ncnc23)cc1O"
recorded_measurement = 0

[[record]]
smiles_notation = "COc1ccc(Nc2ncnc3c(N/N=C/c4cc(O)c(O)c(O)c4)ncnc23)cc1"
recorded_measurement = 0

[[record]]
smiles_notation = "COc1ccc(Nc2ncnc3c(N/N=C/c4ccc(O)c(O)c4)ncnc23)cc1"
recorded_measurement = 2

[[record]]
smiles_notation = "COc1cc(/C=N/Nc2ncnc3c(Nc4ccc(Cl)c(C(F)(F)F)c4)ncnc23)cc(OC)c1O"
recorded_measurement = 19

[[record]]
smiles_notation = "COc1cc(/C=N/Nc2ncnc3c(Nc4ccc(F)c(Cl)c4)ncnc23)ccc1O"
recorded_measurement = 24

[[record]]
smiles_notation = "Oc1cc(/C=N/Nc2ncnc3c(Nc4ccc(OC(F)(F)F)cc4)ncnc23)cc(O)c1O"
recorded_measurement = 21

[[record]]
smiles_notation = "COc1cccc(Nc2ncnc3c(NN)ncnc23)c1"
recorded_measurement = 65

[[record]]
smiles_notation = "Oc1cc(/C=N/Nc2ncnc3c(Nc4ccc(F)c(Cl)c4)ncnc23)cc(O)c1O"
recorded_measurement = 0

[[record]]
smiles_notation = "COc1ccc(Nc2ncnc3c(NN)ncnc23)cc1"
recorded_measurement = 12

[[record]]
smiles_notation = "NNc1ncnc2c(Nc3ccc(OC(F)(F)F)cc3)ncnc12"
recorded_measurement = 20

[[record]]
smiles_notation = "COc1cc(/C=N/Nc2ncnc3c(Nc4ccc(Cl)c(C(F)(F)F)c4)ncnc23)cc(OC)c1OC"
recorded_measurement = 20

[[record]]
smiles_notation = "COc1ccc(/C=N/Nc2ncnc3c(Nc4ccc(OC(F)(F)F)cc4)ncnc23)cc1O"
recorded_measurement = 0

